Where do these numbers come from? They come from ChEMBL document CHEMBL3351593.

Below, each entry is listed with its recorded pKd.
Study System: Peptidyl-prolyl cis-trans isomerase A (Homo sapiens)
Sequence (P62937 whole entry): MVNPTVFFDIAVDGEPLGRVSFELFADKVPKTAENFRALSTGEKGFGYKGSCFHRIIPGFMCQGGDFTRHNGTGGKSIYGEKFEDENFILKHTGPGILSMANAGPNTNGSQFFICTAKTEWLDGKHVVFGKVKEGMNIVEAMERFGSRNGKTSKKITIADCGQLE
pKd: −log10 of the molar value.
Quantity Name: pKd

* C/C=C/C[C@@H](C)[C@@H](O)[C@H]1C(=O)N[C@@H](CC)C(=O)N(C)[C@H](C)C(=O)N(C)[C@@H]([C@H](C)CN2CCC(C#N)CC2)C(=O)N[C@@H](C(C)C)C(=O)N(C)[C@@H](CC(C)C)C(=O)N[C@@H](C)C(=O)N[C@H](C)C(=O)N(C)[C@@H](CC(C)C)C(=O)N(C)[C@@H](CC(C)C)C(=O)N(C)[C@@H](C(C)C)C(=O)N1C | 8.85
* C/C=C/C[C@@H](C)[C@@H](O)[C@H]1C(=O)N[C@@H](CC)C(=O)N(C)[C@H](C)C(=O)N(CC)[C@@H](C(C)C)C(=O)N[C@@H](C(C)C)C(=O)N(C)[C@@H](CC(C)C)C(=O)N[C@@H](C)C(=O)N[C@H](C)C(=O)N(C)[C@@H](CC(C)C)C(=O)N(C)[C@@H](CC(C)C)C(=O)N(C)[C@@H](C(C)C)C(=O)N1C | 8.66
* C/C=C/C[C@@H](C)[C@@H](O)[C@H]1C(=O)N[C@@H](CC)C(=O)N(C)[C@H](C)C(=O)N(C)[C@@H]([C@H](C)CN2CCCOCC2)C(=O)N[C@@H](C(C)C)C(=O)N(C)[C@@H](CC(C)C)C(=O)N[C@@H](C)C(=O)N[C@H](C)C(=O)N(C)[C@@H](CC(C)C)C(=O)N(C)[C@@H](CC(C)C)C(=O)N(C)[C@@H](C(C)C)C(=O)N1C | 8.72
* C/C=C/C[C@@H](C)[C@@H](O)[C@H]1C(=O)N[C@@H](CC)C(=O)N(C)[C@H](C)C(=O)N(C)[C@@H]([C@H](C)CN2CCOCC2)C(=O)N[C@@H](C(C)C)C(=O)N(C)[C@@H](CC(C)C)C(=O)N[C@@H](C)C(=O)N[C@H](C)C(=O)N(C)[C@@H](CC(C)C)C(=O)N(C)[C@@H](CC(C)C)C(=O)N(C)[C@@H](C(C)C)C(=O)N1C | 8.51

----------
Experimental Details: Kinetic solubility of the compound in pH 7.0 water
Assay type: physicochemical
Condition Set: read-out: Kinetic_solubility
Quantity Name: solubility kinetic

• C/C=C/C[C@@H](C)[C@@H](O)[C@H]1C(=O)N[C@@H](CC)C(=O)N(C)[C@H](C)C(=O)N(CC)[C@@H](C(C)C)C(=O)N[C@@H](C(C)C)C(=O)N(C)[C@@H](CC(C)C)C(=O)N[C@@H](C)C(=O)N[C@H](C)C(=O)N(C)[C@@H](CC(C)C)C(=O)N(C)[C@@H](CC(C)C)C(=O)N(C)[C@@H](C(C)C)C(=O)N1C [ALISPORIVIR] = < 5 µg/mL
• C/C=C/C[C@@H](C)[C@@H](O)[C@H]1C(=O)N[C@@H](CC)C(=O)N(C)[C@H](C)C(=O)N(C)[C@@H]([C@@H](C)CN2CCN(CCOC)CC2)C(=O)N[C@@H](C(C)C)C(=O)N(C)[C@@H](CC(C)C)C(=O)N[C@@H](C)C(=O)N[C@H](C)C(=O)N(C)[C@@H](CC(C)C)C(=O)N(C)[C@@H](CC(C)C)C(=O)N(C)[C@@H](C(C)C)C(=O)N1C = 1100 µg/mL
